Molecular target: T1, human nectin-4 protein expressed on the surface of cells (human, UniProt Q96NY8 32-510)
T1 sequence: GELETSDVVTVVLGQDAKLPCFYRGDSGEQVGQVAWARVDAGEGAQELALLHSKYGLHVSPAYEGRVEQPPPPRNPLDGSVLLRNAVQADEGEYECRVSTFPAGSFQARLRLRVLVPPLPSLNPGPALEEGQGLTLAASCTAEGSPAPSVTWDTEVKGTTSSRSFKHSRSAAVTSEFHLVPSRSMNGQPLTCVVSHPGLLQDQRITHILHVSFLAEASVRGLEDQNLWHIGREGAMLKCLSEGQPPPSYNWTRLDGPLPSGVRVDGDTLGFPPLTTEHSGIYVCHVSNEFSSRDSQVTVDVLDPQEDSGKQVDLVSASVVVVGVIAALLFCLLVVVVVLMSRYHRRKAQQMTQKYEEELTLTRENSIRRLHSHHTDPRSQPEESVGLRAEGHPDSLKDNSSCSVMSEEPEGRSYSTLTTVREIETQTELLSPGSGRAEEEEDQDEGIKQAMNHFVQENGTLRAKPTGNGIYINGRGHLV
Assay: cell-based or functional assay
Metric: Cell kill IC50, HekNectin4 (µM)
Express it in µM; write the number only.

Fill in reported Cell kill IC50, HekNectin4 for this entry: Nectin-4 5D9 VH1/VL5 (antibody, V domains shown, Humanized; also called 5D9 VH variant 1 / 5D9 VL variant 5) VH: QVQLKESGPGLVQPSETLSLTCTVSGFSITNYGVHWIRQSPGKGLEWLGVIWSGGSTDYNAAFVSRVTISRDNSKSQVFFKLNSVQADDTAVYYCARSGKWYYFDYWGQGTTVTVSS VL: DIQMTQSPSSLSASVGDRVTITCRASQSIYSNLAWYQQKPGKAPKLLVYAATNLQSGVPSRFSGSGSGTDFTLTISSLQPEDFATYYCQHFWGTPTFGGGTKVEIK 0.00141

Fill in reported Cell kill IC50, HekNectin4 for this entry: Nectin-4 5D9 VH2/VL5 (antibody, V domains shown, Humanized; also called 5D9 VH variant 2 / 5D9 VL variant 5) VH: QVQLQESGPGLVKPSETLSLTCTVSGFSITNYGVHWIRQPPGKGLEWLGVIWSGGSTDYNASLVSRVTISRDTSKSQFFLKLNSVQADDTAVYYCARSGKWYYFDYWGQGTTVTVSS VL: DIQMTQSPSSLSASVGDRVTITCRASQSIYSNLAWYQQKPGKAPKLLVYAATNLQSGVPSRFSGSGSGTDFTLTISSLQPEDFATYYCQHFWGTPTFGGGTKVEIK 0.182

The reported measurements were obtained from patent US20250101098A1.
